- Target Or System: Multidrug resistance protein MdtK (Escherichia coli (strain K12), UniProt P37340)
- Sequence (P37340 whole entry): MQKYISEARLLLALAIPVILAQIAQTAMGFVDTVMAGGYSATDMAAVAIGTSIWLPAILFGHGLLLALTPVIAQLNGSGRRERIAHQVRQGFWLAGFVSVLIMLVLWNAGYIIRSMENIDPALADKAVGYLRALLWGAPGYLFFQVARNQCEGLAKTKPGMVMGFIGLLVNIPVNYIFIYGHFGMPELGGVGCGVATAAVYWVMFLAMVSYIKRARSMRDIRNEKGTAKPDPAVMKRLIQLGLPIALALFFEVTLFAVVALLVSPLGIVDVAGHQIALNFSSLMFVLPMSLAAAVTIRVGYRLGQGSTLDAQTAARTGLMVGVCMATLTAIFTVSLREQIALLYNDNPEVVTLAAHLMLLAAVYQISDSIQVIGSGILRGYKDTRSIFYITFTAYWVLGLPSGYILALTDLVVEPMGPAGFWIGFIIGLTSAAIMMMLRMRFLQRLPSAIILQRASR
- Assay: Binding affinity to purified detergent-solubilized Escherichia coli K-12 multidrug efflux protein YdhE by equilibrium dialysis method
Readout Type: pKd
Just so you know, pKd here is -log10 of the concentration in molar units; reply with that number alone.

Form field - read-out: pKd; system: Multidrug resistance protein MdtK (Escherichia coli (strain K12), UniProt P37340); submitted item: CC/N=c1\cc2oc3cc(NCC)c(C)cc3c(-c3ccccc3C(=O)OCC)c-2cc1C.Cl [RHODAMINE 6G HYDROCHLORIDE]
5.52

###

- Tested on: Escherichia coli
- Assay: Antimicrobial activity against AcrAB-deficient Escherichia coli AG100AX harboring pBADomegaydhE plasmid containing Escherichia coli multidrug efflux pump YdhE after 18 to 24 hrs by two fold dilution method
- Format: functional
Reported MIC values for the following molecules.
Numbers only; they are read as µg/mL.

Suppose we examine the molecule CC[n+]1c(-c2ccccc2)c2cc(N)ccc2c2ccc(N)cc21.[Br-] [HOMIDIUM BROMIDE] ; what MIC value has been reported?
15.6

Consider the molecule COc1cccc2c1C(=O)c1c(O)c3c(c(O)c1C2=O)C[C@@](O)(C(=O)CO)C[C@@H]3O[C@H]1C[C@H](N)[C@H](O)[C@H](C)O1 [DOXORUBICIN] and give its measured MIC.
6.25

MIC lookup needed for CN[C@H](CC(C)C)C(=O)N[C@H]1C(=O)N[C@@H](CC(N)=O)C(=O)N[C@H]2C(=O)N[C@H]3C(=O)N[C@H](C(=O)N[C@H](C(=O)O)c4cc(O)cc(O)c4-c4cc3ccc4O)[C@H](O)c3ccc(c(Cl)c3)Oc3cc2cc(c3O[C@@H]2O[C@H](CO)[C@@H](O)[C@H](O)[C@H]2O[C@H]2C[C@](C)(N)[C@H](O)[C@H](C)O2)Oc2ccc(cc2Cl)[C@H]1O [VANCOMYCIN] , thanks.
250

Entry CCn1cc(C(=O)O)c(=O)c2ccc(C)nc21 [NALIDIXIC ACID] : reported MIC = ?
0.625

Any idea what MIC was measured for CN(C)c1ccc(O)c2c1C[C@H]1C[C@H]3[C@H](N(C)C)C(O)=C(C(N)=O)C(=O)[C@@]3(O)C(O)=C1C2=O [MINOCYCLINE] ?
0.625
